Molecular target: human 5-HT6 (Homo sapiens)
Sequence (P50406 whole entry): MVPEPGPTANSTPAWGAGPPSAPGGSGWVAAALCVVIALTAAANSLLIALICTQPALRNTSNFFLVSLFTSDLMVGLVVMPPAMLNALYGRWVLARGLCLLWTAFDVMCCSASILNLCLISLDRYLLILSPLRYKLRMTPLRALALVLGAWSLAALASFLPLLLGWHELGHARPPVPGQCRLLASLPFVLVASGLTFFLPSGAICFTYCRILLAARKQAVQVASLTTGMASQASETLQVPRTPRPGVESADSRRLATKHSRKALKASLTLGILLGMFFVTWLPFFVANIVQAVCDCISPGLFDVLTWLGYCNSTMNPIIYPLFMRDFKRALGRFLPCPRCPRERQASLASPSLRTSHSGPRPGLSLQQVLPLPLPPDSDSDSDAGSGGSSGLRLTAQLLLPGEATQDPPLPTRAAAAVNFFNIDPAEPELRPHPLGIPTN
Assay: 5-HT6 functional assay (calcium response, Chem-10 host cells)
Type: cell-based
Set-up: host or cells: Chem-10 host cells, co-expressing a recombinant promiscuous G protein
Conditions: agonist serotonin, 30 min preincubation, Fluo-4NW calcium, read-out: 5-HT6 antagonist Kb
Method: The serotonin receptor 5-HT6 is a Gs coupled receptor. In the brain it responds to serotonin and other agonists by increasing adenyl cyclase mediated production of cyclic AMP. 5-HT6 can be also functionally tested using different coupling types. […] Fluorescence was measured by FLEXstation 3 (Molecular Devices). […]
QUANTITY_MEASURED: Kb (nM)
Give your result in nM as a bare value.

Tested on human 5-HT6 (Homo sapiens), the item `COc1ccc(-c2cc(CC3CCOCC3)nc(N3CCN(C)CC3)c2)c(F)c1` showed Kb equal to 5.06

Tested on human 5-HT6 (Homo sapiens), the item `COc1ccc(-c2cc(CC3CCOCC3)nc(N3CCNC(C)(C)C3)c2)cc1` showed Kb equal to 4.7

Tested on human 5-HT6 (Homo sapiens), the item `CN1CCN(c2cc(-c3ccccn3)cc(CC3CCOCC3)n2)CC1` showed Kb equal to 81.8

Tested on human 5-HT6 (Homo sapiens), the item COc1ccc(-c2cc(C(C)C3CCOCC3)nc(N3CCN(C)CC3)c2)cc1 (stereo not shown) showed Kb equal to 0.01

Tested on human 5-HT6 (Homo sapiens), the item `CN1CCN(c2cc(-c3cscn3)cc(CC3CCOCC3)n2)CC1` showed Kb equal to 1.97

Tested on human 5-HT6 (Homo sapiens), the item `CN1CCN(c2cc(-c3ccc4ccccc4n3)cc(CC3CCOCC3)n2)CC1` showed Kb equal to 204
